Data provenance: paper PMC6067974

This document collects Ki values reported for serotonin transporter (SERT) (Homo sapiens).
Use µM as the unit, but write only the number.

Indicate the recorded Ki value for this compound: "N#Cc1c(N)nc(SCC(N)=O)c(C#N)c1-c1ccc(OCC2CC2)cc1"
5.6

Indicate the recorded Ki value for this compound: "COc1ccc(CCCn2ncc3c2nc(N)n2nc(-c4ccco4)nc32)cc1"
6.1

---

# System under test: mouse A2AAR (Mus musculus, UniProt Q60613)
# Sequence (Q60613 whole entry): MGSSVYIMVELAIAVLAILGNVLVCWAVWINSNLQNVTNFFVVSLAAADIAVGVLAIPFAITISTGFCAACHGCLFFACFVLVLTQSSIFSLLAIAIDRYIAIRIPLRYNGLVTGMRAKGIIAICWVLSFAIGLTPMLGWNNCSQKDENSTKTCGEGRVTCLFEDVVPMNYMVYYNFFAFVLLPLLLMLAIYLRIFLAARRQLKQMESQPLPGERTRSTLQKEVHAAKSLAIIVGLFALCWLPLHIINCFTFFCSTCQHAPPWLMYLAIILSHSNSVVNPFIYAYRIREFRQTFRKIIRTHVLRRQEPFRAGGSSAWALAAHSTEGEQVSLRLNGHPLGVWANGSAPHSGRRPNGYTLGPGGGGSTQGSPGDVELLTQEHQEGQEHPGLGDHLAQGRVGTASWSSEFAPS
# Protocol details: Radioligand binding, mouse A2AAR
Recorded endpoint: Ki (nM)
Use nM as the unit, but write only the number.

Indicate the recorded Ki value for this compound: CNC(=O)c1cnn(-c2nc(N)c3ncn([C@@H]4O[C@H](CO)[C@@H](O)[C@H]4O)c3n2)c1 [regadenoson]
77.2

---

Recorded endpoint: pKi
API: returns pKi as number; meaning -log10 of concentration in mol/L.

Name the recorded pKi of "COc1ccc(CCCn2ncc3c2nc(N)n2nc(-c4ccco4)nc32)cc1" , assay system human 5HT2B receptor (Homo sapiens, UniProt P41595).
6.04

---

# System under test: mouse A1AR (Mus musculus, UniProt Q60612)
# Sequence (Q60612 whole entry): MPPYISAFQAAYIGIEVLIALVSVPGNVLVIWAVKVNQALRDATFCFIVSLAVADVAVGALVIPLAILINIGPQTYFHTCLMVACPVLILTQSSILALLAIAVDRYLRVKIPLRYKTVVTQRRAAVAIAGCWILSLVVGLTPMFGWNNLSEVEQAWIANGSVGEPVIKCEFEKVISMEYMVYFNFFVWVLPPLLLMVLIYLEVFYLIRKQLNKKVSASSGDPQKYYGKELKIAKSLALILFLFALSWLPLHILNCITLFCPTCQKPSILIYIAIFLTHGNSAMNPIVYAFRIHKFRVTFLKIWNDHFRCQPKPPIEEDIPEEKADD
# Protocol details: Radioligand binding, mouse A1AR
Recorded endpoint: Ki (nM)
Use nM as the unit, but write only the number.

Name the recorded Ki of CNC(=O)c1cnn(-c2nc(N)c3ncn([C@@H]4O[C@H](CO)[C@@H](O)[C@H]4O)c3n2)c1 [regadenoson] , assay system mouse A1AR (Mus musculus, UniProt Q60612).
7.75

---

# System under test: M3 acetylcholine receptor (Homo sapiens, UniProt P20309)
# Sequence (P20309 whole entry): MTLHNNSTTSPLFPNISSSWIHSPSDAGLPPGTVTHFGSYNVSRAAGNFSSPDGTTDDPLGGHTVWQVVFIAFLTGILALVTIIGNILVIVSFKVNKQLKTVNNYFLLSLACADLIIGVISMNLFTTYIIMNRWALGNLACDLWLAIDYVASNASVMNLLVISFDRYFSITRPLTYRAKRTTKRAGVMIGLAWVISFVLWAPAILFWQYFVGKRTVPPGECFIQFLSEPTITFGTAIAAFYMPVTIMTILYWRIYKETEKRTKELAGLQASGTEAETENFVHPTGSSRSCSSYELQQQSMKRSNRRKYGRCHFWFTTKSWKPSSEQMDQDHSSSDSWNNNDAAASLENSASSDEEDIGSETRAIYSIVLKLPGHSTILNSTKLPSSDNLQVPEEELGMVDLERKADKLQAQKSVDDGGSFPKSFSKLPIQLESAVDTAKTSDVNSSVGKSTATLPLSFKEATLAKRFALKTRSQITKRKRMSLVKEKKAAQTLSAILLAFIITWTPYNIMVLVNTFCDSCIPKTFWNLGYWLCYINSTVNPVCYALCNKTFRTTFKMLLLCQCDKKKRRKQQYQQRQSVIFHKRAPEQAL
Recorded endpoint: pKi
API: returns pKi as number; meaning -log10 of concentration in mol/L.

Indicate the recorded pKi value for this compound: COc1ccc(CCCn2ncc3c2nc(N)n2nc(-c4ccco4)nc32)cc1 [SCH442416]
5.17

---

# System under test: UniProt Q60613
# Protocol details: Radioligand binding, mouse A2AAR
# Measurement parameters: read-out: mouse Ki, A2AAR; mouse; current results, ± SEM
Recorded endpoint: pKi
API: returns pKi as number; meaning -log10 of concentration in mol/L.

Indicate the recorded pKi value for this compound: CCNC(=O)[C@H]1O[C@@H](n2cnc3c(N)nc(NCCc4ccc(CCC(=O)NCCN)cc4)nc32)[C@H](O)[C@@H]1O [APEC]
8.45

Indicate the recorded pKi value for this compound: N.Nc1nc(SCCc2ccc(S(=O)(=O)O)cc2)nc2c1ncn2[C@@H]1O[C@H](CO)[C@@H](O)[C@H]1O [PSB-0777]
6.71

---

Recorded endpoint: Ki
Please answer using the number first and the unit second.

Name the recorded Ki of N.Nc1nc(SCCc2ccc(S(=O)(=O)O)cc2)nc2c1ncn2[C@@H]1O[C@H](CO)[C@@H](O)[C@H]1O [PSB-0777] , assay system human β1 adrenergic receptor (Homo sapiens, UniProt P08588).
4.4 µM
